Here the recorded pEC50 is given for each entry.
- system: mGluR4 (Homo sapiens)
- Construct: expressed in transfected cells; host or cells: CHO cells (human mGluR4) or HEK cells (rat mGluR4 with GIRK)
- assayText: mGluR4 potentiation assay (fluorometric plate reader, compound then EC20 agonist); species for the tabulated values not stated
- Type: cell-based
- assayContext: EC50 for potentiation of mGluR4; EC20 concentration of agonist
Value format note: pEC50 is -log10 of concentration (mol/L); just state the number.

Previously resolved entries follow.
[[record]]
compoundstructure = "FC(F)(F)c1cccc(Nc2noc3cccnc23)c1"
readoutvalue = 6.36

[[record]]
compoundstructure = "COc1cc(Nc2noc3cccnc23)ccc1Cl"
readoutvalue = 5.68

[[record]]
compoundstructure = "FC(F)Oc1cccc(Nc2noc3cccnc23)c1"
readoutvalue = 6.44

[[record]]
compoundstructure = "Fc1cccc(Nc2noc3cccnc23)c1"
readoutvalue = 6.19

[[record]]
compoundstructure = "Clc1ccc(Nc2noc3cccnc23)cc1Cl"
readoutvalue = 5.34


Input: // fetch mGluR4 (Homo sapiens) pEC50 for Clc1cccc(Nc2noc3cccnc23)c1
Output: 6.68

---

- system: mGluR4 (Homo sapiens)
- Construct: expressed in transfected cells; host or cells: CHO cells (human mGluR4) or HEK cells (rat mGluR4 with GIRK)
- assayText: mGluR4 potentiation assay (fluorometric plate reader, compound then EC20 agonist); species for the tabulated values not stated
- Format: cell-based
- assayContext: EC50 for potentiation of mGluR4; unit inferred, exponent notation
pEC50: −log10 of the molar value.
Is pEC50 at least 6? Then criterion met. If not, criterion not met.

Input: For this compound, is measured pEC50 6 or higher? COc1ccc(Nc2noc3ccccc23)cc1Cl [Example 33]
Output: criterion not met

Input: And c1ccc(Nc2noc3cccnc23)cc1 [Example 17, N-phenylisoxazolo[4,5-b]pyridin-3-amine] ?
Output: criterion not met

Input: And Fc1cccc(Nc2noc3ccccc23)c1 [Example 31] ?
Output: criterion not met

---

- system: mGluR4 (Homo sapiens, UniProt Q14833)
- Construct: expressed in transfected cells; host or cells: CHO cells (human mGluR4) or HEK cells (rat mGluR4 with GIRK)
- Sequence (Q14833 33-912): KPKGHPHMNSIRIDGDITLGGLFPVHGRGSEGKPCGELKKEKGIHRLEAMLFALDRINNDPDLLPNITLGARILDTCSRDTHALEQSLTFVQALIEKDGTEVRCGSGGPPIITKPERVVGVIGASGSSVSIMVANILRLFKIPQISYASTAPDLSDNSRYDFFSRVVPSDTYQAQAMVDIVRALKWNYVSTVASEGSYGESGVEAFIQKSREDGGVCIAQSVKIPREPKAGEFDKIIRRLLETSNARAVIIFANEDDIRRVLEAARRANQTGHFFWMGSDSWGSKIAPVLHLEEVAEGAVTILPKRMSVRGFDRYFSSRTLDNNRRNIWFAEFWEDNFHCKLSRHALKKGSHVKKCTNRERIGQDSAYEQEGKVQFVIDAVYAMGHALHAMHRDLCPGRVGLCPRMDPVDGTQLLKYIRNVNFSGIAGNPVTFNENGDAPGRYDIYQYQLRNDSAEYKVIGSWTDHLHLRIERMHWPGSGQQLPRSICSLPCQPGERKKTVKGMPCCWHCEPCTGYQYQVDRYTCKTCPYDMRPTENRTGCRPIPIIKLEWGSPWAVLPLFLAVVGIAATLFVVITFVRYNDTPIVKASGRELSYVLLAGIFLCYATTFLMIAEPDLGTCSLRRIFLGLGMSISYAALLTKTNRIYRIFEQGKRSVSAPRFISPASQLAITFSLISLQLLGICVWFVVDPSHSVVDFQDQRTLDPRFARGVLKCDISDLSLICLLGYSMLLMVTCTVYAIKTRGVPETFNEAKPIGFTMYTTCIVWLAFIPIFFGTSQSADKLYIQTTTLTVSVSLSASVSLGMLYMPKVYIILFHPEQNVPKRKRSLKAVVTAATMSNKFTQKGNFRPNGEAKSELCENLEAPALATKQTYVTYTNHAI
- assayText: mGluR4 potentiation assay (fluorometric plate reader, compound then EC20 agonist); species for the tabulated values not stated
- Format: cell-based
- assayContext: EC50 for potentiation of mGluR4; unit inferred, exponent notation
Here the recorded pEC50 is given for each entry.
Value format note: pEC50 is -log10 of concentration (mol/L); just state the number.

Previously resolved entries follow.
[[record]]
compoundstructure = "c1cnc2c(Nc3ccc4c(c3)OCO4)noc2c1"
readoutvalue = 6.00

[[record]]
compoundstructure = "COc1cc(Nc2noc3cccnc23)ccc1F"
readoutvalue = 6.33


Input: Field request: pEC50 | item: Fc1ccc(Nc2noc3cccnc23)cc1F
Output: 6.47

---

- system: mGluR4 (Homo sapiens)
- Construct: expressed in transfected cells; host or cells: CHO cells (human mGluR4) or HEK cells (rat mGluR4 with GIRK)
- assayText: mGluR4 potentiation assay (fluorometric plate reader, compound then EC20 agonist); species for the tabulated values not stated
- Assay type: cell-based
- assayContext: EC50 for potentiation of mGluR4; EC20 concentration of agonist
readoutKind: EC50 (nM)
Write down the numeric answer in nM and omit the unit.

Previously resolved entries follow.
[[record]]
compoundstructure = "COc1ccc(Nc2noc3cccnc23)cc1OC"
readoutvalue = 4340

[[record]]
compoundstructure = "Fc1ccc(Nc2noc3cccnc23)cc1Cl"
readoutvalue = 893


Input: Field request: EC50 | item: COc1ccc(Nc2noc3cccnc23)cc1Cl
Output: 78.8

---

- system: mGluR4 (Homo sapiens)
- Construct: expressed in transfected cells; host or cells: CHO cells (human mGluR4) or HEK cells (rat mGluR4 with GIRK)
- assayText: mGluR4 potentiation assay (fluorometric plate reader, compound then EC20 agonist); species for the tabulated values not stated
- Format: cell-based
- assayContext: EC50 for potentiation of mGluR4; unit inferred, exponent notation
pEC50: −log10 of the molar value.
Is pEC50 at least 6? Then True. If not, False.

The following compounds have reported results that may help.
[[record]]
compound = "O=S(=O)(Cc1ccccc1Cl)n1ccc(Nc2noc3cccnc23)c1 [Example 16]"
system = "mGluR4 (Homo sapiens)"
assignedcategory = "True"

[[record]]
compound = "Cc1cc(Nc2noc3cccnc23)ccc1Cl [Example 20]"
system = "mGluR4 (Homo sapiens)"
assignedcategory = "True"

[[record]]
compound = "CC(=O)c1cccc(Nc2noc3cccnc23)c1 [Example 22]"
system = "mGluR4 (Homo sapiens)"
assignedcategory = "False"

[[record]]
compound = "Fc1ccc2onc(Nc3cccc(Cl)c3)c2n1 [Example 27]"
system = "mGluR4 (Homo sapiens)"
assignedcategory = "True"


Continue with the compound presented below.
Input: For this compound, is measured pEC50 6 or higher? FC(F)C(F)(F)Oc1cccc(Nc2noc3cccnc23)c1 [Example 26]
Output: False
